Assay: Pharmacokinetics in vivo after single oral or intravenous administration
Design: species or system rat
Details: male, Wistar, rat, plasma, iv, 10 mg/kg, rats, i.v. injection, Mean ± SD (n = 3), read-out: C0
readout type: C0 (ng/mL)
A number alone suffices; assume ng/mL.

Input: Item under review: O=S1(=O)COc2cc(-c3ccc(OCC4CCN(c5ncc(Cl)cn5)CC4)c(F)c3)ccc21 . Reported C0?
Output: 32

----------
Test: Biotransformation in vitro, microsomal stability (rat)
Assay type: in vitro ADME
Settings: liver microsomal fraction
Documented microsomal CLint at 0.5 μM across a set of molecules
Provide the reading as a plain figure in µL/min/mg.

* CC(C)(C)OC(=O)N1CCC(COc2ccc(-c3ccc4c(c3)OCS4(=O)=O)cc2F)CC1 [ZB-09] | 89.2
* O=S1(=O)COc2cc(-c3ccc(OCC4CCN(c5ncc(Cl)cn5)CC4)nc3)ccc21 [ZB-20] | 21.2
* O=S1(=O)COc2cc(-c3ccc(OCC4CCN(c5ncc(Cl)cn5)CC4)c(F)c3)ccc21 [ZB-16] | 42.8

Now consider the entry below.
Input: Report microsomal CLint at 0.5 μM for CC(C)(C)OC(=O)N1CCC(COc2ccc(-c3ccc4c(c3)OCS4(=O)=O)cn2)CC1 [ZB-19] please.
Output: 126

Reference source: paper PMC6156125
